Assay: clinical
Conditions: human, in vivo, po
measured-quantity: AUC(0-inf)

Please fill in: AUC(0-inf) reported for `Cc1nnc2n1-c1ccc(Cl)cc1C(c1ccccc1)=NC2` = 0.167 µg·h/mL
